Hey, just so you know, these numbers are from PubChem BioAssay AID463173.

# Test system: Wild type
# assay explanation: S. aureus survival, RN4220 and DeltatarO strains – OD600, teichoic acid synthesis inhibitors, primary screen (AID 463173)
# measurement setup: S. aureus RN4220 wild type/DeltatarO growth, OD600, 18 h, hits give low values, screened at 18.75 µg/mL (by protocol)
The whole screen tested about 52,000 compounds, of which about 1,700 (3.3%) were called active. The list comes from a sample in which actives are over-represented; it also holds close analogues and randomly drawn compounds.
Reported values of survival for individual entries
Only the number, expressed in %, is required.

smiles_entry=CCOc1ccccc1N(C)C(=O)c1c2c(nc3ccccc13)C(=O)N(C1CCCCC1)C2 result_units=% obs_value=90
smiles_entry=CN(C(=O)c1c2c(nc3ccccc13)C(=O)N(C1CCCCC1)C2)c1ccc(F)cc1 result_units=% obs_value=-3
smiles_entry=COc1ccc(OC)c(CNS(=O)(=O)c2c(C(=O)N3CCCCCC3)c(C)n(C)c2C)c1 result_units=% obs_value=135
smiles_entry=COc1ccc(-n2nc3cc(C)c(NC(=O)COc4cccc(C)c4)cc3n2)cc1 result_units=% obs_value=78

Turning to the following molecule.
Query block: Param readout= survival; system= Wild type; entry= `COc1ccccc1Cc1nc2ccccc2nc1SCC(=O)N1CCc2ccccc21` ; returns value.
Result block: 49
